test: Anodic potential of the compound at pH 8.10 by differential pulse voltammetry; format: physicochemical; details: pH 8.1
Square brackets hold non-standard residues; d marks the D form. Peptide text beside a SMILES is read from it. Aib = CC(C)(N)C(=O)O
measure: Activity
Number first, unit second.

Before answering, review these 5 worked examples.
CC[C@H](C)[C@H](N)C(=O)N[C@H](C(=O)N[C@H](C(=O)N[C@@H](Cc1ccc(O)cc1)C(=O)N1CCC[C@H]1C(=O)N[C@@H](Cc1c[nH]c2ccccc12)C(=O)N[C@H](C(=O)N[C@@H](CCC(N)=O)C(N)=O)[C@@H](C)O)C(C)C)C(C)C: 0.062 V
CC(C)[C@H](N)C(=O)N[C@H](C(=O)N[C@@H](Cc1ccc(O)cc1)C(=O)N1CCC[C@H]1C(=O)N[C@@H](Cc1c[nH]c2ccccc12)C(=O)N[C@H](C(=O)N[C@@H](CCCN)C(N)=O)[C@@H](C)O)C(C)C: 0.075 V
CC(C)[C@H](NC(=O)[C@@H](NC(=O)C(C)(C)N)C(C)C)C(=O)N[C@@H](Cc1ccc(O)cc1)C(=O)N1CCC[C@H]1C(=O)N[C@@H](Cc1c[nH]c2ccccc12)C(=O)N[C@H](C(=O)N[C@@H](CCC(N)=O)C(N)=O)[C@@H](C)O (H-[Aib]VVYPWTQ-NH2): 0.025 V
CC(C)[C@H](N)C(=O)N[C@H](C(=O)N[C@@H](Cc1ccc(O)cc1)C(=O)N1CCC[C@H]1C(=O)N[C@@H](Cc1c[nH]c2ccccc12)C(=O)N[C@H](C(=O)N[C@@H](CN)C(N)=O)[C@@H](C)O)C(C)C: 0.085 V
CC(C)[C@H](N)C(=O)N[C@H](C(=O)N[C@@H](Cc1ccc(O)cc1)C(=O)N1CCC[C@H]1C(=O)N[C@@H](Cc1c[nH]c2ccccc12)C(=O)N[C@H](C(=O)N[C@@H](CCN)C(N)=O)[C@@H](C)O)C(C)C: 0.009 V

// switching to the query molecule
[ask] Give the measured Activity of CC(C)[C@H](N)C(=O)N[C@H](C(=O)N[C@@H](Cc1ccc(O)cc1)C(=O)N1CCC[C@H]1C(=O)N[C@@H](Cc1c[nH]c2ccccc12)C(=O)N[C@H](C(=O)N[C@@H](CCCCN)C(N)=O)[C@@H](C)O)C(C)C .
[reply] 0.071 V

----------
Below, each of the molecules is paired with its reported pKa value.
assay: Dissociation constant, pKa of the compound at pH 5.02 to 10.20 by cyclic voltammetry; format: physicochemical
Square brackets hold non-standard residues; d marks the D form. Peptide text beside a SMILES is read from it. Aib = CC(C)(N)C(=O)O
API doc: respond with a numeric literal and nothing else, no unit.

Example entries begin here.
CC[C@H](C)[C@H](N)C(=O)N[C@H](C(=O)N[C@H](C(=O)N[C@@H](Cc1ccc(O)cc1)C(=O)N1CCC[C@H]1C(=O)N[C@@H](Cc1c[nH]c2ccccc12)C(=O)N[C@H](C(=O)N[C@@H](CCC(N)=O)C(N)=O)[C@@H](C)O)C(C)C)C(C)C: 8.01
CC(C)[C@H](N)C(=O)N[C@H](C(=O)N[C@@H](Cc1ccc(O)cc1)C(=O)N1CCC[C@H]1C(=O)N[C@@H](Cc1c[nH]c2ccccc12)C(=O)N[C@H](C(=O)N[C@@H](CCCCN)C(N)=O)[C@@H](C)O)C(C)C: 8.24

[ask] Reported pKa, molecule CC(C)[C@H](NC(=O)[C@@H](NC(=O)C(C)(C)N)C(C)C)C(=O)N[C@@H](Cc1ccc(O)cc1)C(=O)N1CCC[C@H]1C(=O)N[C@@H](Cc1c[nH]c2ccccc12)C(=O)N[C@H](C(=O)N[C@@H](CCC(N)=O)C(N)=O)[C@@H](C)O (H-[Aib]VVYPWTQ-NH2) : ____
[reply] 8.17

[ask] Endpoint output: pKa of CC(C)[C@H](N)C(=O)N[C@H](C(=O)N[C@@H](Cc1ccc(O)cc1)C(=O)N1CCC[C@H]1C(=O)N[C@@H](Cc1c[nH]c2ccccc12)C(=O)N[C@H](C(=O)N[C@@H](CN)C(N)=O)[C@@H](C)O)C(C)C . Value?
[reply] 9.23

[ask] What does the data say about its pKa? Entry: CC(C)[C@H](N)C(=O)N[C@H](C(=O)N[C@@H](Cc1ccc(O)cc1)C(=O)N1CCC[C@H]1C(=O)N[C@@H](Cc1c[nH]c2ccccc12)C(=O)N[C@H](C(=O)N[C@@H](CCN)C(N)=O)[C@@H](C)O)C(C)C
[reply] 8.12

[ask] I have this molecule here, CC(C)[C@H](N)C(=O)N[C@H](C(=O)N[C@@H](Cc1ccc(O)cc1)C(=O)N1CCC[C@H]1C(=O)N[C@@H](Cc1c[nH]c2ccccc12)C(=O)N[C@H](C(=O)N[C@@H](CCCN)C(N)=O)[C@@H](C)O)C(C)C , and I need its recorded pKa.
[reply] 7.83
